Sourced from patent US20030186281A1

System: tet operator sequence
Assay Summary: β-galactosidase activity of a tetracycline-regulated promoter in transformed E. coli with revTetR, in the presence and absence of anhydrotetracycline (atc)
Assay type: cell-based, Escherichia coli
Conditions: RevTetR isolate cultured in the presence of anhydrotetracycline (ATC)
Readout Label: β-Galactosidase Activity, Cultured With ATC
Answers are plain numbers.

1) TetRrev6-2: revTetR(BD) D95G G96R H100L (protein, Modified tetracycline repressor, revTetR(BD) D95G G96R H100L) MSRLDKSKVINSALELLNEVGIEGLTTRKLAQKLGVEQPTLYWHVKNKRALLDALAVEILARHHDYSLPAAGESWQSFLRNNAMSFRRALLRYRGRAKVLLGTRPDEKQYDTVETQLRFMTENGFSLRDGLYAISAVSHFTLGAVLEQQEHTAALTDRPAAPDENLPPLLREALQIMDSDDGEQAFLHGLESLIRGFEVQLTALLQIV | 18.3

Input line: Reported β-Galactosidase Activity, Cultured With ATC for TetRrev96/99-11: revTetR(BD) G96R V99Y (protein, Modified tetracycline repressor, revTetR(BD) G96R V99Y) MSRLDKSKVINSALELLNEVGIEGLTTRKLAQKLGVEQPTLYWHVKNKRALLDALAVEILARHHDYSLPAAGESWQSFLRNNAMSFRRALLRYRDRAKYHLGTRPDEKQYDTVETQLRFMTENGFSLRDGLYAISAVSHFTLGAVLEQQEHTAALTDRPAAPDENLPPLLREALQIMDSDDGEQAFLHGLESLIRGFEVQLTALLQIV : what is it?
Output line: 18.656
